# Protocol notes: Confirmation screen for delayed death inhibitors of the malarial parasite plastid, 96 hour incubation; also: nearly all actives have a fitted effect of over 60% in size
# Condition notes: P. falciparum luciferase growth in erythrocytes; series mostly up to 28.7 µM
Screen size: about 2,300 compounds; about 1,400 (61%) were called active. Roughly 29% stayed inconclusive and do not appear here. Calls follow the shape of the dose curve; as a rule, active = well fitted inhibition curve with a large enough effect; inconclusive = small, poorly fitted or top-dose-only effect, or effect the other way; inactive = no such curve, though single readings can be large or run the other way. So high a share suggests a set chosen from earlier hits. Some of the results follow.
Your response should consist of one outcome taken from y for active, n for inactive

Recorded results for 5 molecules are shown here.
O=S(=O)(c1ccc(OCC(O)CN2CCN(c3ccc(F)cc3)CC2)cc1)N1CCOCC1 (stereo unspecified)
y
COc1ccc(CCN2CCCn3c2nc2c3c(=O)n(Cc3ccccc3F)c(=O)n2C)cc1OC
y
COc1cnc(-c2ccccn2)nc1N(C)c1ccccc1
y
CCCSCCCNC(=O)c1ccccc1NC(=O)C1=CSCCO1
y
O=C(N/N=C/c1cccn1-c1ccc([N+](=O)[O-])cc1)c1cccnc1
y

Field: next molecule
Ask: Can you look up the reported call for O=C(c1ccccc1Br)N1CCN(c2ccccn2)CC1 for me?
Reply: n

* * *

# Protocol notes: Confirmation screen for delayed death inhibitors of the malarial parasite plastid, 96 hour incubation; also: nearly all actives have a fitted effect of over 60% in size; also: potency is read from the fitted curve at half-maximal effect
# Condition notes: P. falciparum luciferase growth in erythrocytes; series mostly up to 28.7 µM
Screen size: about 2,300 compounds; about 1,400 (61%) were called active. Inconclusive results (about 29%) are left out. The set was probably picked from earlier hits. Some of the results follow.
Measured parameter: Potency

Ask: Requested field: Potency. Item: CN(c1ccccc1)S(=O)(=O)c1cc(C(=O)N2CCN(c3ncccn3)CC2)ccc1Cl
Reply: 8.91 µM (active)

Ask: Requested field: Potency. Item: COC(=O)C(=C/C(C)=C/c1cccs1)C(=O)OC
Reply: 12.6 µM (active)

Ask: Requested field: Potency. Item: CCOC(=O)c1c(-c2ccc(F)cc2)csc1NC(=O)c1c(-c2ccccc2)noc1C
Reply: 7.08 µM (active)

* * *

# Protocol notes: Confirmation screen for delayed death inhibitors of the malarial parasite plastid, 96 hour incubation; also: nearly all actives have a fitted effect of over 60% in size; also: potency is read from the fitted curve at half-maximal effect
# Condition notes: P. falciparum luciferase growth in erythrocytes; series mostly up to 28.7 µM
The whole screen tested about 2,300 compounds, of which about 1,400 (61%) were called active. Another 29% or so got no clear call; they are omitted. So high a share suggests a set chosen from earlier hits. The list shows a part of the results.
Measured parameter: Potency

Ask: Requested field: Potency. Item: CCOc1ccc(C2NC(=S)NC3=C2CCc2ccccc23)cc1 (stereo not drawn)
Reply: 14.1 µM (active)

Ask: Requested field: Potency. Item: CC1CCN(CCNC(=O)C2CCN(S(=O)(=O)c3cccc4nsnc34)CC2)CC1
Reply: 7.94 µM (active)

Ask: Requested field: Potency. Item: COc1ccc(Nc2nnc(-c3ccc(C)cc3)c3ccccc23)cc1C(=O)N1CCCCC1
Reply: 0.251 µM (active)

* * *

# Protocol notes: Confirmation screen for delayed death inhibitors of the malarial parasite plastid, 96 hour incubation; also: nearly all actives have a fitted effect of over 60% in size
# Condition notes: P. falciparum luciferase growth in erythrocytes; series mostly up to 28.7 µM
Screen size: about 2,300 compounds; about 1,400 (61%) were called active. Another 29% or so got no clear call; they are omitted. Calls follow the shape of the dose curve; as a rule, active = well fitted inhibition curve with a large enough effect; inconclusive = small, poorly fitted or top-dose-only effect, or effect the other way; inactive = no such curve, though single readings can be large or run the other way. So high a share suggests a set chosen from earlier hits. This is one part of the list.
Your response should consist of one outcome taken from active, inactive

Recorded results for 4 molecules are shown here.
CSc1cccc(CN2CCC(Oc3cccc(C(=O)N4CCCC4)c3)CC2)c1
active
Brc1ccc(/C=N/Nc2ncnc3c2cnn3Cc2ccccc2)cc1
active
CCc1noc(C)c1C(=O)NC1CC(C)(C)Cc2c1cnn2-c1ccccc1 (configuration not stated)
active
Cc1ccc(-c2nn(C(C)(C)C)c3ncnc(N)c23)cc1
active

Ask: Can you look up the reported call for Cc1oc(-c2ccccc2Cl)nc1CSCC(=O)N1CCCC1 for me?
Reply: active

Ask: Can you look up the reported call for Cc1nc(SC(C)C(=O)NCC2CCCO2)c2cc(-c3ccccc3)sc2n1 (configuration not stated) for me?
Reply: active

Ask: Can you look up the reported call for COc1cc2c(cc1OC)[C@@H](NC(=O)C(C)C)[C@H](OCc1ccccc1)C2 for me?
Reply: inactive

Ask: Can you look up the reported call for CCN(CC)C(=O)CSc1nc(COc2ccccc2)nc2ccccc12 for me?
Reply: active

Ask: Can you look up the reported call for CC(C)(C)C1C/C(=C/c2ccccn2)C(=O)/C(=C/c2ccccn2)C1 (configuration not stated) for me?
Reply: active

Ask: Can you look up the reported call for CC1=C(C(=O)NC2CC(C)(C)Cc3c2cnn3-c2ccc(C)cc2)OCCO1 (configuration not stated) for me?
Reply: active

Ask: Can you look up the reported call for Cc1oc(-c2ccccc2F)nc1CS(=O)(=O)CC(=O)NCCCN1CCN(C)CC1 for me?
Reply: inactive

Ask: Can you look up the reported call for O=C(c1ccccc1)c1nn(-c2ccc(Cl)cc2)c(=O)cc1C(F)(F)F for me?
Reply: active
